assay: Single dose study: plasma pharmacokinetics of eplerenone, open lactone ring form, spironolactone; details: male, human, plasma, po, 50 mg
REPORTED_PROPERTY: concentration at 96 h (ng/mL)
State just the number; it will be interpreted in ng/mL.

May I ask what concentration at 96 h has been recorded for COC(=O)C1CC2=CC(=O)CCC2(C)C23OC2CC2(C)C(CC[C@@]24CCC(=O)O4)C13 (some centres unmarked) ? 0

May I ask what concentration at 96 h has been recorded for CC(=O)S[C@@H]1CC2=CC(=O)CC[C@]2(C)[C@H]2CC[C@@]3(C)[C@@H](CC[C@@]34CCC(=O)O4)[C@H]12 [spironolactone, Spironolactone, reference compound] ? 0
